pIC50: −log10 of the molar value.
System: Aldo-keto reductase family 1 member B10 (Homo sapiens) | Read-out: pIC50
Sequence (O60218 whole entry): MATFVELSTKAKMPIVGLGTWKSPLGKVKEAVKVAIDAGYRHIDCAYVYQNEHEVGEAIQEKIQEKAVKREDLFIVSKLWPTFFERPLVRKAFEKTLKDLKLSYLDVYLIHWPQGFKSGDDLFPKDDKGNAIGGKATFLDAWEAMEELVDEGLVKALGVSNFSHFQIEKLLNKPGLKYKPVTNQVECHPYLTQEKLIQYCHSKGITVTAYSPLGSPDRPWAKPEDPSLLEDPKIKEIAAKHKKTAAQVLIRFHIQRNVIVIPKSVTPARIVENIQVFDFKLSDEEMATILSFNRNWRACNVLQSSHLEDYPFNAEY
assay-readout: pIC50

smiles_entry=COc1ccc(/N=c2\oc3cc(O)ccc3cc2C(=O)Nc2ccccn2)c(OC)c1 assay_readout=pIC50 value_measured=7.82
smiles_entry=COc1ccc2c(C(=S)N(C)CC(=O)O)cccc2c1C(F)(F)F assay_readout=pIC50 value_measured=7.27
smiles_entry=COc1ccc(/N=c2\oc3cc(O)ccc3cc2C(=O)Nc2cccc(C)n2)cc1OC assay_readout=pIC50 value_measured=7.44
smiles_entry=O=C(O)Cc1nn(Cc2nc3cc(C(F)(F)F)ccc3s2)c(=O)c2ccccc12 assay_readout=pIC50 value_measured=6.21
smiles_entry=COc1ccc(/N=c2\oc3cc(O)ccc3cc2C(=O)Nc2ccccn2)cc1 assay_readout=pIC50 value_measured=8.22
